- Test Target: human CD33 T173A (human, UniProt P20138 18-364)
- Sequence (P20138 18-364 T173A limits assumed): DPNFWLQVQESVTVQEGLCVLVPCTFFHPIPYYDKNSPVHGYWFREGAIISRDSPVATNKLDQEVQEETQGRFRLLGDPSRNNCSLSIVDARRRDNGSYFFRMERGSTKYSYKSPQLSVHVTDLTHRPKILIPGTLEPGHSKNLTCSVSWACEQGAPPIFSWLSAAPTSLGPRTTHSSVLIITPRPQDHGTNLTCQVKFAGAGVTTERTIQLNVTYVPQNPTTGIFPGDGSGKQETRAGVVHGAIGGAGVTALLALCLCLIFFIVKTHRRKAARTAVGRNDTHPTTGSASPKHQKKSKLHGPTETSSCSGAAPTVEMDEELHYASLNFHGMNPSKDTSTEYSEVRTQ
- Assay Notes: alanine scan, flow cytometry, HEK293-T;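 further: antibody binding to each alanine-substituted CD33 mutant expressed transiently in HEK293-T, read as fluorescence minus background, mean of duplicates, relative to wild-type CD33 set as 100%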
Here, each record is paired with measured Mean % WT Binding data.
Number in %, nothing else.

Below, each entry is followed by its recorded Mean % WT Binding result.
Refmab #2 (antibody, V domains shown, In the alanine scan antibodies were used as IgG or Fab) VH: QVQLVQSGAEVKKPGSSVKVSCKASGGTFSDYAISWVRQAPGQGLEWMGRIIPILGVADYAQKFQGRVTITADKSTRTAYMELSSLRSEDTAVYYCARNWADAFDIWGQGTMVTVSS VL: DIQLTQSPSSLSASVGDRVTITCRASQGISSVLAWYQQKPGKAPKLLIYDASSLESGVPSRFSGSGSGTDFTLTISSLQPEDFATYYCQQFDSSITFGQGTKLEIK	134
Refmab #4 (antibody, V domains shown, In the alanine scan antibodies were used as IgG or Fab) VH: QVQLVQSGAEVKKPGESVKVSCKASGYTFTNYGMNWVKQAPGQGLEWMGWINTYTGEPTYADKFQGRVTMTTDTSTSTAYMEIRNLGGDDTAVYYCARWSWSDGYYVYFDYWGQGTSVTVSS VL: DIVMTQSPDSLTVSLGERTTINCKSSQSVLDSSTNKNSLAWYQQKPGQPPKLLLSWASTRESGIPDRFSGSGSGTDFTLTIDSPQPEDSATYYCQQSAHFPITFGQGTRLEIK	119

// sample Refmab #1 (antibody, V domains shown, In the alanine scan antibodies were used as IgG or Fab; also called hP67.6) VH: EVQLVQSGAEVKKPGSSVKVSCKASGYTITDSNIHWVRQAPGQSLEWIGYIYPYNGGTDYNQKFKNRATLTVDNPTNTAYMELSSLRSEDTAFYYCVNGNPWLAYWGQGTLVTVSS VL: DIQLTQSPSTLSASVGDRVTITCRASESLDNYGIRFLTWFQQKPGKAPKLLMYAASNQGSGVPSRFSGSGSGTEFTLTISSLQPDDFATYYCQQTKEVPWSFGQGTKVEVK , its Mean % WT Binding was 106

Measured values drawn from patent US20260242735A1 for this set.
